Overview of reported fold change of Tryptamine concentration across a group of compounds:
Tested on: Clostridium sporogenes DSM 1664
Experiment: fold change of Tryptamine concentration vs plate DMSO controls (fold change (ratio)); higher = more amine produced, active = hit call of the paper (significant change in both replicates, either direction)
Conditions: incubation time: 27 h, anaerobic, 37 °C
Where a name gives a salt, the structure may show the parent alone.
Answer with a number only.

Known results for compounds:
compound	experimental system	reported
CN1CCN(C2=Nc3cc(Cl)ccc3Nc3ccccc32)CC1 [Clozapine] (20 µM)	Clostridium sporogenes DSM 1664	1.02
CC/C=C(\C(=O)N[C@@H]1C(=O)N2C(C(=O)OCOC(=O)C(C)(C)C)=C(COC(N)=O)CS[C@H]12)c1csc(N)n1 [Cefcapene pivoxil hydrochloride monohydrate] (20 µM)	Clostridium sporogenes DSM 1664	1.1
NS(=O)(=O)c1cc(C(=O)O)cc(N2CCCC2)c1Oc1ccccc1 [Piretanide] (20 µM)	Clostridium sporogenes DSM 1664	1.11
Clc1ccc(Cn2c(CN3CCCC3)nc3ccccc32)cc1 [Clemizole hydrochloride] (20 µM)	Clostridium sporogenes DSM 1664	1.11
CC1(C)O[C@@H]2C[C@H]3[C@@H]4C[C@H](F)C5=CC(=O)C=C[C@]5(C)[C@@]4(F)[C@@H](O)C[C@]3(C)[C@]2(C(=O)CO)O1 [Fluocinolone acetonide] (20 µM)	Clostridium sporogenes DSM 1664	1.02

Query string: May I ask what fold change of Tryptamine concentration has been recorded for CCOC1O[C@H]([C@@H](COCc2ccccc2)OCc2ccccc2)[C@H](OCc2ccccc2)[C@H]1O (stereo partly specified) [Tribenoside] (20 µM) ?
Result string: 0.969

The reported measurements were obtained from the supplement of paper PMC12494721.
